Source of measurements: the supplement of paper PMC9112550

- System: Escherichia coli TOP10
- procedure summary: shrunken log2 fold change of peptide-encoding DNA abundance (4.5 h post-induction vs induction); higher = less antimicrobial activity (less host growth inhibition)
- cond: time post-induction: 4.5 h; library: site-saturation at positions 5, 18, 19, 20
Categories are defined by ranges of shrunken log2 fold change, namely LOW: < -0.1; MID: ≥ -0.1 and < 0.1; HIGH: ≥ 0.1

Lab note: sort "RRIRKRPPRLPRPRPRPTECPRP" into the matching shrunken log2 fold change band. HIGH

* * *

- System: Escherichia coli TOP10
- procedure summary: shrunken log2 fold change of peptide-encoding DNA abundance (4.5 h post-induction vs induction); higher = less antimicrobial activity (less host growth inhibition)
- cond: time post-induction: 4.5 h; library: site-saturation at positions 5, 18, 19, 20
Classification field: enter Condition met for shrunken log2 fold change values not below 0.02, Condition not met for values below it.

These recorded examples may help you get a feel for the data.
# sequence code, group
measured = [
    ("RRIRGRPPRLPRPRPRPCAKPRP", "Condition met"),
    ("RRIRYRPPRLPRPRPRPMMSPRP", "Condition not met"),
    ("RRIRYRPPRLPRPRPRPHSFPRP", "Condition not met"),
    ("RRIRKRPPRLPRPRPRPLMVPRP", "Condition met"),
    ("RRIRLRPPRLPRPRPRPGEGPRP", "Condition not met"),
]

Threshold query (shrunken log2 fold change >= 0.02) on "RRIRTRPPRLPRPRPRPQNHPRP" Condition not met

Threshold query (shrunken log2 fold change >= 0.02) on "RRIRVRPPRLPRPRPRPGEMPRP" Condition met

* * *

Catalogue of sequences with associated shrunken log2 fold change
- System: Escherichia coli TOP10;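 note: peptides expressed intracellularly from a pBAD plasmid library in pooled LB shake-flask culture, induced with 0.3% L-arabinose, DNA abundance read by NGS, three biological replicates, DESeq2 with apeglm shrinkage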
- procedure summary: shrunken log2 fold change of peptide-encoding DNA abundance (4.5 h post-induction vs induction); higher = less antimicrobial activity (less host growth inhibition)
- cond: time post-induction: 4.5 h; library: site-saturation at positions 5, 18, 19, 20
# output: bare number, no unit

Use these answered entries as a reference point.
# sequence code, study system, shrunken log2 fold change
rows = [
    ("RRIRERPPRLPRPRPRPTYQPRP", "Escherichia coli TOP10", -0.136),
    ("RRIRLRPPRLPRPRPRPPCAPRP", "Escherichia coli TOP10", 0.457),
    ("RRIRYRPPRLPRPRPRPFCNPRP", "Escherichia coli TOP10", -0.0455),
    ("RRIRKRPPRLPRPRPRPNGDPRP", "Escherichia coli TOP10", -0.024),
    ("RRIRQRPPRLPRPRPRPLLFPRP", "Escherichia coli TOP10", -0.0219),
    ("RRIRHRPPRLPRPRPRPFCTPRP", "Escherichia coli TOP10", -0.294),
    ("RRIRHRPPRLPRPRPRPHCAPRP", "Escherichia coli TOP10", -0.109),
    ("RRIRWRPPRLPRPRPRPCCDPRP", "Escherichia coli TOP10", 0.0279),
]

Look up shrunken log2 fold change of "RRIRRRPPRLPRPRPRPTLNPRP" and report it. 0.511

Look up shrunken log2 fold change of "RRIRVRPPRLPRPRPRPCYVPRP" and report it. -0.0957

Look up shrunken log2 fold change of "RRIRPRPPRLPRPRPRPAMPPRP" and report it. 0.246

Look up shrunken log2 fold change of "RRIRNRPPRLPRPRPRPVLGPRP" and report it. 0.00359

Look up shrunken log2 fold change of "RRIRWRPPRLPRPRPRPIVHPRP" and report it. -0.175

Look up shrunken log2 fold change of "RRIRKRPPRLPRPRPRPKSIPRP" and report it. -0.0265

Look up shrunken log2 fold change of "RRIRSRPPRLPRPRPRPEYEPRP" and report it. -0.0387
